# STUDY SYSTEM: Substance-K receptor (Mesocricetus auratus, UniProt P51144)
# Sequence (P51144 whole entry): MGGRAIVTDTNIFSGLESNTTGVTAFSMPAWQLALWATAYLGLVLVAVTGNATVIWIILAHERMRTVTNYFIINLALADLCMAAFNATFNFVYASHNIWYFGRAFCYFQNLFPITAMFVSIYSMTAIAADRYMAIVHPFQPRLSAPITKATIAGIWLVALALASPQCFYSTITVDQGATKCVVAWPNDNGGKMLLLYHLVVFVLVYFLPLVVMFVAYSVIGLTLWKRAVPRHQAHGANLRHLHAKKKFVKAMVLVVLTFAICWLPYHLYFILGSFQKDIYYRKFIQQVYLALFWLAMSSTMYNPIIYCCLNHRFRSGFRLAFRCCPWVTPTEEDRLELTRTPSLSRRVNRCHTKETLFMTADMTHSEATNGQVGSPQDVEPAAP
# METHOD NOTES: Antagonist activity against Tachykinin receptor 2 was measured by Hamster isolated trachea(HT) assay.
# Format: functional, tissue-based
# MEASUREMENT PARAMETERS: read-out: pA2 (converted)
ASSAY ENDPOINT: Kb (nM)
Unit nM implied. Number only.

Input `C[C@H](NC(=O)[C@@H](Cc1c[nH]c2ccccc12)NC(=O)[C@H](Cc1ccc(O)cc1)NC(=O)[C@@H](N)CC(=O)O)C(=O)N[C@H](Cc1c[nH]c2ccccc12)C(=O)N[C@H](Cc1c[nH]c2ccccc12)C(=O)N[C@@H](CCCCN)C(=O)O` . Output Kb: 355

Input `CC(C)[C@H](NC(=O)[C@@H](Cc1c[nH]c2ccccc12)NC(=O)[C@H](Cc1ccc(O)cc1)NC(=O)[C@@H](N)CC(N)=O)C(=O)N[C@H](Cc1c[nH]c2ccccc12)C(=O)N[C@H](Cc1c[nH]c2ccccc12)C(=O)N[C@@H](CCCN=C(N)N)C(=O)O` . Output Kb: 1170

Input `CC(C)[C@H](NC(=O)[C@@H](Cc1c[nH]c2ccccc12)NC(=O)[C@H](Cc1ccc(O)cc1)NC(=O)[C@@H](N)CCC(N)=O)C(=O)N[C@H](Cc1c[nH]c2ccccc12)C(=O)N[C@H](Cc1c[nH]c2ccccc12)C(=O)N[C@@H](Cc1ccccc1)C(=O)O` . Output Kb: 1740

Input `CC(C)[C@H](NC(=O)[C@@H](Cc1c[nH]c2ccccc12)NC(=O)[C@H](Cc1ccc(O)cc1)NC(=O)[C@@H](N)CC(=O)O)C(=O)N[C@H](Cc1c[nH]c2ccccc12)C(=O)N[C@H](Cc1c[nH]c2ccccc12)C(=O)N[C@@H](CCC(=O)O)C(=O)O` . Output Kb: 427

---

# STUDY SYSTEM: Substance-K receptor (Rattus norvegicus)
# Sequence (P16610 whole entry): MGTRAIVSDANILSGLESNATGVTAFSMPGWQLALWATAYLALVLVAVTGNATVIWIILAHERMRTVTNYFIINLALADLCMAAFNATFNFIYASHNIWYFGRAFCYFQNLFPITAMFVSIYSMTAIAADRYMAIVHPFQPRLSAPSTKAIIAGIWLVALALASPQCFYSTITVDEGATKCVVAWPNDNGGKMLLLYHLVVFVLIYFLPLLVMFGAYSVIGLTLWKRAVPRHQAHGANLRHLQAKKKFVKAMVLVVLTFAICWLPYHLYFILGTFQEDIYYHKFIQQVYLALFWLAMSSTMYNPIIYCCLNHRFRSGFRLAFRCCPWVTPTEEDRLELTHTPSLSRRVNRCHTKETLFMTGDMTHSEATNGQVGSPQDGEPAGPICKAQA
# METHOD NOTES: Antagonism against Tachykinin receptor 2 in rat vas deferens(RVD)
# Type: functional
# MEASUREMENT PARAMETERS: read-out: pA2 (converted)
ASSAY ENDPOINT: Kb (nM)
Unit nM implied. Number only.

Substance-K receptor (Rattus norvegicus) assay, compound `CSCC[C@H](NC(=O)[C@@H](Cc1c[nH]c2ccccc12)NC(=O)[C@@H](Cc1c[nH]c2ccccc12)NC(=O)[C@@H](NC(=O)[C@@H](Cc1c[nH]c2ccccc12)NC(=O)[C@H](CO)NC(=O)[C@@H](N)CC(=O)O)C(C)C)C(=O)O` , recorded Kb = 1950

Substance-K receptor (Rattus norvegicus) assay, compound `CC(C)[C@H](NC(=O)[C@@H](Cc1c[nH]c2ccccc12)NC(=O)[C@H](Cc1ccc(O)cc1)NC(=O)[C@@H](N)CC(=O)O)C(=O)N[C@H](Cc1c[nH]c2ccccc12)C(=O)N[C@H](Cc1c[nH]c2ccccc12)C(=O)NCC(=O)O` , recorded Kb = 34.7

Substance-K receptor (Rattus norvegicus) assay, compound `CSCC[C@H](NC(=O)[C@H](CC(C)C)NC(=O)CNC(=O)[C@@H](Cc1c[nH]c2ccccc12)NC(=O)[C@H](Cc1ccccc1)NC(=O)[C@H](Cc1ccc(O)cc1)NC(=O)[C@@H](N)CC(=O)O)C(=O)O` , recorded Kb = 14100

Substance-K receptor (Rattus norvegicus) assay, compound `CC(C)[C@H](NC(=O)[C@@H](Cc1c[nH]c2ccccc12)NC(=O)[C@H](Cc1ccc(O)cc1)NC(=O)[C@@H](N)CC(N)=O)C(=O)N[C@H](Cc1c[nH]c2ccccc12)C(=O)N[C@H](Cc1c[nH]c2ccccc12)C(=O)N[C@@H](CCCN=C(N)N)C(=O)O` , recorded Kb = 347

---

# STUDY SYSTEM: Angiotensin-converting enzyme (Homo sapiens, UniProt P12821)
# Sequence (P12821 whole entry): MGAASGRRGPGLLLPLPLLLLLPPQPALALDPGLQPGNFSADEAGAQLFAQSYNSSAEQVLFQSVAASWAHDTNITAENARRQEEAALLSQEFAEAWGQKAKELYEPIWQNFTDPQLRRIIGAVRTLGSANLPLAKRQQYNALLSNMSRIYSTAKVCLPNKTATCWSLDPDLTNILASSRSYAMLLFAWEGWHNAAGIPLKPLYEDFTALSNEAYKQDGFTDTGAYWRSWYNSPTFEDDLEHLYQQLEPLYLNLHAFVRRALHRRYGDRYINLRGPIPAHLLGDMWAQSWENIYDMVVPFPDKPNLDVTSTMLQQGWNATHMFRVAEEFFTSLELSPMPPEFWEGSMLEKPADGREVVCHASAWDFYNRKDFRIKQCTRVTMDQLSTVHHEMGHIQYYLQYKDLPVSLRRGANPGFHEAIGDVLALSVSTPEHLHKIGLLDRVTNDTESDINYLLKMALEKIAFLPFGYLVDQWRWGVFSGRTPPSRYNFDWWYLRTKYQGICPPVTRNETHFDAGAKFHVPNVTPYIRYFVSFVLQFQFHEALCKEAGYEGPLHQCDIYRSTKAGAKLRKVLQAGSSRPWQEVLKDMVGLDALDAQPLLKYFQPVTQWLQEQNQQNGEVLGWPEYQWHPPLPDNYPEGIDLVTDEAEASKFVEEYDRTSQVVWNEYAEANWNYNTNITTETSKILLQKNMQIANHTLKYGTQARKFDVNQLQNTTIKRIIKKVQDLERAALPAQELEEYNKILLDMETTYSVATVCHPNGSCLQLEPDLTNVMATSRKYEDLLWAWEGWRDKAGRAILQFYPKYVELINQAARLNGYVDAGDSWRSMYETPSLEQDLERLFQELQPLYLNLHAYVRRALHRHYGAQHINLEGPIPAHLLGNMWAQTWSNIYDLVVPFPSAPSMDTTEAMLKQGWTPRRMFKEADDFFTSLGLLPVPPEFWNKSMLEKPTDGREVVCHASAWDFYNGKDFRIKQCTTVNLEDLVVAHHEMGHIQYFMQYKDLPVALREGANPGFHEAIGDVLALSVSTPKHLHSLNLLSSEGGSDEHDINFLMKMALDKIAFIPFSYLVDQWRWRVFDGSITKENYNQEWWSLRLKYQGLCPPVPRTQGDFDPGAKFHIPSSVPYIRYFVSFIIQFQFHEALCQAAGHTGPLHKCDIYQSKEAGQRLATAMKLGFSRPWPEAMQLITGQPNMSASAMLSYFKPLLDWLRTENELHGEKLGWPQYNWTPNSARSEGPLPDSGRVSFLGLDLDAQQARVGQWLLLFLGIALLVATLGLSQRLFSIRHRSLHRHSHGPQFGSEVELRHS
# METHOD NOTES: Biological activity was measured against Angiotensin I converting enzyme
# MEASUREMENT PARAMETERS: read-out: Log 1/IC50 (converted)
Peptide text beside a SMILES is read from it.
Please respond with reported IC50 for every item in the list.

Input CC[C@H](C)[C@H](N)C(=O)NCC(=O)O (H-Ile-Gly-OH) . Output IC50: 1200 µM

Input CC(C)[C@H](N)C(=O)N[C@@H](Cc1ccc(O)cc1)C(=O)O (H-Val-Tyr-OH) . Output IC50: 21.9 µM

Input CC[C@H](C)[C@H](NC(=O)CN)C(=O)O (H-Gly-Ile-OH) . Output IC50: 1200 µM

Input CSCC[C@H](N)C(=O)NCC(=O)O (H-Met-Gly-OH) . Output IC50: 4790 µM

Input NCC(=O)N[C@@H](Cc1ccc(O)cc1)C(=O)O (H-Gly-Tyr-OH) . Output IC50: 209 µM
